# Test system: Escherichia coli
# ASSAY_NAME: Synergistic antimicrobial activity against blaNDM-1-producing multidrug-resistant Escherichia coli SI-004M clinical isolate assessed as meropenem MIC at 32 ug/ml by CLSI based microdilution method (reference value: 64 ug/ml)
# Type: functional
# EXPERIMENTAL_CONTEXT: dose 32 µg/ml
EXPERIMENTAL_READOUT: MIC (µg/mL)
One number for each entry, in µg/mL.

Solved entries:
Prompt: Dear colleague, I am looking for the recorded MIC of the following compound: Oc1cccc(CCn2c(-c3cccc(-c4ccccc4)c3)n[nH]c2=S)c1O
Response: 32

Prompt: Dear colleague, I am looking for the recorded MIC of the following compound: Oc1ccc(CCn2c(-c3ccccc3)n[nH]c2=S)cc1
Response: 64

Give me MIC for each of these compounds, listed below.
1. COc1ccc(O)c(-c2n[nH]c(=S)n2[C@@H]2C[C@H]2c2ccccc2)c1
2. Oc1ccc(CCn2c(-c3cccc(-c4ccccc4)c3)n[nH]c2=S)cc1O
3. O=C1OC(Cn2c(-c3ccccc3)n[nH]c2=S)c2ccccc21 (stereo unspecified)
4. Oc1ccc(CCn2c(-c3cc(-c4ccccc4)ccc3O)n[nH]c2=S)c(O)c1
5. O=C(O)c1ccc(Cn2c(-c3ccccc3)n[nH]c2=S)cc1
6. COc1ccc(O)c(-c2n[nH]c(=S)n2CC2OC(=O)c3ccccc32)c1 (stereo unspecified)

Response:
32
32
64
64
64
64

Give me MIC for each of these compounds, listed below.
1. Cn1cccc1-c1n[nH]c(=S)n1CC1OC(=O)c2ccccc21 (stereo unspecified)
2. S=c1[nH]nc(-c2ccccc2)n1CCCc1ccccc1

Response:
1. 32
2. 64

Prompt: Dear colleague, I am looking for the recorded MIC of the following compound: COc1ccc(O)c(-c2n[nH]c(=S)n2Cc2ccccc2)c1
Response: 32

----------
# MEASURED_ON: UniProtKB P12822
# Sequence (whole entry): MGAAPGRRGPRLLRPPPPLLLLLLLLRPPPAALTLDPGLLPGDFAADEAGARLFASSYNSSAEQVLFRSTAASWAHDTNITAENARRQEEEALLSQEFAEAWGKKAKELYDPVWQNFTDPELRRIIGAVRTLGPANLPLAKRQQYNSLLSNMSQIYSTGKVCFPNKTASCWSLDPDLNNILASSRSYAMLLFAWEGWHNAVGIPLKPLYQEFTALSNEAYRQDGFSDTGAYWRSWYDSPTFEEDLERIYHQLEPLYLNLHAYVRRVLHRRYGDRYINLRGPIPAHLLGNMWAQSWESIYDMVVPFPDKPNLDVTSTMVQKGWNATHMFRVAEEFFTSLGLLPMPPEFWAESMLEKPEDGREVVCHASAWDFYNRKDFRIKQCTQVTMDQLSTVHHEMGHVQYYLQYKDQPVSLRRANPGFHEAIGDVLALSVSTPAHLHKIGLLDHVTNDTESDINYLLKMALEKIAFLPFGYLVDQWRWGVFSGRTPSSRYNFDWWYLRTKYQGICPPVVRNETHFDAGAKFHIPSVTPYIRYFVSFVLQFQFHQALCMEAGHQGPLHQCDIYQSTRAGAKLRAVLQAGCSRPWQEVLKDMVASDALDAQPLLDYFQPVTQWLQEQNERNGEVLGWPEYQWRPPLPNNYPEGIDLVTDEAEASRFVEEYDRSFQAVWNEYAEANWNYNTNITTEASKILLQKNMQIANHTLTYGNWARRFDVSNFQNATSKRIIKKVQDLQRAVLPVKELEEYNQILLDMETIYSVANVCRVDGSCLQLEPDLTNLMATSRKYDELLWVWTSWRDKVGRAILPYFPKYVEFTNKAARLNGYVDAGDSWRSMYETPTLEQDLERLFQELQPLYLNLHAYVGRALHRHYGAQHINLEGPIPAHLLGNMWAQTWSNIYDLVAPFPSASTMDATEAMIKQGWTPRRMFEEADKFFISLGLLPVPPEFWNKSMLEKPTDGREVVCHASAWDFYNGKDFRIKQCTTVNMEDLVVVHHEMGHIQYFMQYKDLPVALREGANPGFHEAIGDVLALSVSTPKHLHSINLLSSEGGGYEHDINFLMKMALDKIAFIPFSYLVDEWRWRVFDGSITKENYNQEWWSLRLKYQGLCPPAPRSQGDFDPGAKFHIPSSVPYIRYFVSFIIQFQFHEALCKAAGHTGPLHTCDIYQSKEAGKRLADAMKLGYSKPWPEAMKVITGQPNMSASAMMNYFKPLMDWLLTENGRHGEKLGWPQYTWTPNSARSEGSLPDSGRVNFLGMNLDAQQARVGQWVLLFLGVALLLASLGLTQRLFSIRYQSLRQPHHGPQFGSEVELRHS
# ASSAY_NAME: Inhibition of rabbit lung angiotensin-converting enzyme at 100 uM using Abz-Gly-Phe-(NO2)-Pro as substrate by fluorescence based microplate reader analysis relative to control
# Format: tissue-based
Calls of active or inactive are those of the source. No cut-off for these calls is given here.
EXPERIMENTAL_READOUT: inhibition

Prompt: Dear colleague, I am looking for the recorded inhibition of the following molecule: S=c1[nH]nc(-c2ccccc2)n1CCCc1ccccc1
Response: 50%

Prompt: Dear colleague, I am looking for the recorded inhibition of the following molecule: Oc1ccc(CCn2c(-c3cccc(-c4ccccc4)c3)n[nH]c2=S)c(O)c1
Response: 35%

Prompt: Dear colleague, I am looking for the recorded inhibition of the following molecule: O=C(O)c1cccc(Cn2c(-c3ccccc3)n[nH]c2=S)c1
Response: inactive

Prompt: Dear colleague, I am looking for the recorded inhibition of the following molecule: COc1ccc(O)c(-c2n[nH]c(=S)n2CC2OC(=O)c3ccccc32)c1 (stereo not given)
Response: inactive

Further cases:
Prompt: Dear colleague, I am looking for the recorded inhibition of the following molecule: Sc1nnc(-c2ccccc2)n1Cc1ccccc1
Response: inactive

----------
# MEASURED_ON: Metallo-beta-lactamase type 2 (Bacteria)
# Sequence (C7C422 whole entry): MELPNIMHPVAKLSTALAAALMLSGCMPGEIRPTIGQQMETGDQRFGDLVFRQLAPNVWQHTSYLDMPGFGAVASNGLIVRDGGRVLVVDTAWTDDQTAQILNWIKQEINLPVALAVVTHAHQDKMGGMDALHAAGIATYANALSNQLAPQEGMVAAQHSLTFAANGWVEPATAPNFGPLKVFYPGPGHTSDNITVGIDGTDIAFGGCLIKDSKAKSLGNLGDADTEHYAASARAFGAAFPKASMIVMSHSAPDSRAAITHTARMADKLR
# ASSAY_NAME: Binding affinity to NDM1 (unknown origin) expressed in Escherichia coli BL21(DE3) assessed as inhibition constant by measuring rate of substrate hydrolysis by UV-Vis spectrophotometric analysis
# EXPERIMENTAL_CONTEXT: read-out: Ki
pKi: −log10 of the molar value.
Values of pKi greater than or equal to 5 map to T; values below map to F.

Would you please look over these solved cases?
Prompt: For this molecule, is measured pKi 5 or higher? Oc1ccc(CCn2c(-c3cccc(-c4ccccc4)c3)n[nH]c2=S)c(O)c1
Response: F

Prompt: For this molecule, is measured pKi 5 or higher? Oc1ccc(/C=N/n2c(-c3ccccc3-c3ccccc3)n[nH]c2=S)c(O)c1
Response: T

Prompt: For this molecule, is measured pKi 5 or higher? O=C(O)c1ccccc1/C=N/n1c(-c2cccc(-c3ccccc3)c2)n[nH]c1=S
Response: T

Prompt: For this molecule, is measured pKi 5 or higher? S=c1[nH]nc(-c2ccccc2)n1[C@@H]1C[C@H]1c1ccccc1
Response: F

Prompt: For this molecule, is measured pKi 5 or higher? Oc1cccc(CCn2c(-c3cccc(-c4ccccc4)c3)n[nH]c2=S)c1O
Response: F

Prompt: For this molecule, is measured pKi 5 or higher? Oc1ccc(CCn2c(-c3cccc(-c4ccccc4)c3)n[nH]c2=S)cc1O
Response: F

Prompt: For this molecule, is measured pKi 5 or higher? COc1ccc(O)c(-c2n[nH]c(=S)n2CCc2ccccc2)c1
Response: T

Now consider a different molecule.
Prompt: For this molecule, is measured pKi 5 or higher? Oc1ccc(CCn2c(-c3ccccc3-c3ccccc3)n[nH]c2=S)c(O)c1
Response: F

----------
# MEASURED_ON: Beta-lactamase VIM-1 (Bacteria) (UniProt Q8GDC1)
# ASSAY_NAME: Inhibition of VIM-1 (unknown origin) expressed in Escherichia coli BL21(DE3) assessed as substrate hydrolysis at 100 uM by UV-Vis spectrophotometric analysis relative to control
Give measured inhibition for each item. Keep answers brief.
Answers are plain numbers, in %.

Solved entries:
Prompt: Dear colleague, I am looking for the recorded inhibition of the following compound: S=c1[nH]nc(Cc2ccccc2)n1CCCc1ccccc1
Response: 30

Prompt: Dear colleague, I am looking for the recorded inhibition of the following compound: S=c1[nH]nc(-c2ccccc2)n1CCc1c[nH]c2ccccc12
Response: 50

Prompt: Dear colleague, I am looking for the recorded inhibition of the following compound: S=c1[nH]nc(-c2ccccc2)n1CCc1ccc(OCc2ccccc2)cc1
Response: 34

Prompt: Dear colleague, I am looking for the recorded inhibition of the following compound: O=C1OC(Cn2c(-c3ccccc3-c3ccccc3)n[nH]c2=S)c2ccccc21 (stereo not given)
Response: 30

Let us move to another entry and its inhibition.
Prompt: Dear colleague, I am looking for the recorded inhibition of the following compound: Cc1ccccc1-c1n[nH]c(=S)n1CCc1ccc(OCc2ccccc2)cc1
Response: 47

----------
# Tested on: metallo-β-lactamase VIM-2 (Pseudomonas aeruginosa)
# ASSAY_NAME: Inhibition of VIM-2 (unknown origin) expressed in Escherichia coli BL21(DE3) assessed as substrate hydrolysis at 100 uM by UV-Vis spectrophotometric analysis relative to control
Give measured inhibition for each item. Keep answers brief.

Solved entries:
Prompt: Dear colleague, I am looking for the recorded inhibition of the following compound: O=C(NCc1ccccc1)c1ccccc1CCn1c(-c2ccccc2)n[nH]c1=S
Response: < 30%

Prompt: Dear colleague, I am looking for the recorded inhibition of the following compound: O=C1OC(Cn2c(-c3cccc(-c4ccccc4)c3)n[nH]c2=S)c2ccccc21 (stereo unspecified)
Response: < 30%

Prompt: Dear colleague, I am looking for the recorded inhibition of the following compound: S=c1[nH]nc(-c2cc(Cl)cc(Cl)c2)n1/N=C/c1ccc(OCc2ccccc2)cc1
Response: < 30%

Prompt: Dear colleague, I am looking for the recorded inhibition of the following compound: O=C1OC(Cn2c(-c3ccccc3)n[nH]c2=S)c2ccccc21 (stereo unspecified)
Response: < 30%

Prompt: Dear colleague, I am looking for the recorded inhibition of the following compound: O=C1OC(Cn2c(-c3ccccc3-c3ccccc3)n[nH]c2=S)c2ccccc21 (stereo unspecified)
Response: < 30%

Prompt: Dear colleague, I am looking for the recorded inhibition of the following compound: FC(F)(F)c1ccc(CCn2c(-c3ccccc3)n[nH]c2=S)cc1
Response: < 30%

Give me inhibition for each of these compounds, listed below.
1. S=c1[nH]nc(-c2ccccc2)n1CCc1ccccc1
2. Oc1ccc(CCn2c(-c3ccccc3-c3ccccc3)n[nH]c2=S)c(O)c1
3. O=C(O)Cc1ccccc1Cn1c(-c2ccccc2)n[nH]c1=S

Response:
1. < 30%
2. 35%
3. 50%

Give me inhibition for each of these compounds, listed below.
1. Oc1ccc(CCn2c(-c3ccccc3)n[nH]c2=S)c(O)c1
2. COc1ccc(O)c(-c2n[nH]c(=S)n2[C@@H]2C[C@H]2c2ccccc2)c1
3. S=c1[nH]nc(-c2ccc3ccccc3c2)n1CCc1ccccc1
4. S=c1[nH]nc(Cc2ccc3ccccc3c2)n1-c1ccc(OCc2ccccc2)cc1
5. O=C1OC(Cn2c(Cc3ccc4ccccc4c3)n[nH]c2=S)c2ccccc21 (stereo unspecified)

Response:
1: < 30%; 2: 41%; 3: < 30%; 4: < 30%; 5: < 30%

Give me inhibition for each of these compounds, listed below.
1. Cc1ccccc1CCn1c(-c2ccccc2)n[nH]c1=S
2. O=C1OC(Cn2c(-c3ccc(-c4ccccc4)cc3)n[nH]c2=S)c2ccccc21 (stereo unspecified)
3. Cn1cccc1-c1n[nH]c(=S)n1CC1OC(=O)c2ccccc21 (stereo unspecified)
4. O=C1OC(Cn2c(-c3ccc4ccccc4c3)n[nH]c2=S)c2ccccc21 (stereo unspecified)
5. S=c1[nH]nc(Cc2ccccc2)n1CCc1ccccc1

Response:
1. < 30%
2. < 30%
3. 38%
4. < 30%
5. < 30%

Give me inhibition for each of these compounds, listed below.
1. S=c1[nH]nc(-c2ccc3ccccc3c2)n1[C@@H]1C[C@H]1c1ccccc1
2. Oc1ccc(CCn2c(-c3ccc4ccccc4c3)n[nH]c2=S)cc1

Response:
< 30%
< 30%

Cited source for all entries: ChEMBL document CHEMBL5325390
